Please provide measured Flow (fold over parent) for the entries that follow.
biological target: T1, Human CCR8 (C-C chemokine receptor type 8) expressed on CHO-S cells (human, UniProt P51685 1-355); assay: flow cytometry, human CCR8-overexpressing against parental CHO-S cells
T1 construct: also called huCCR8; human CCR8-expressing CHO-S cells
T1 sequence (P51685 whole entry): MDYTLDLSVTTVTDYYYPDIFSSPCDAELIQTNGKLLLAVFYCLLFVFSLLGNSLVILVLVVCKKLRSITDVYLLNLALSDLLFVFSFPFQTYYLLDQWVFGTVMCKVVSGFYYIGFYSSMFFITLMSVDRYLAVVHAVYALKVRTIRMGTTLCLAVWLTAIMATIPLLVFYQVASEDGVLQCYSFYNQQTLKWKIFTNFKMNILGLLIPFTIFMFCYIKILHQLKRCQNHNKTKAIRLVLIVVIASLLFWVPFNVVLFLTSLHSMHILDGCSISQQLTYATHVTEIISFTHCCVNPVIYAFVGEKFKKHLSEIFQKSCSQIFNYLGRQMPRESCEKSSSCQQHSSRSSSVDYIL
Please respond with the number in fold and leave the unit unwritten.

Ask: Dear colleague, please send me the reported Flow (fold over parent) for 7B16.010 (CDR H3 alanine scan variant of 7-B16) (antibody, human IgG1, kappa, V domains shown) VH: EVQLVESGGGLVQPKGSLKLSCAASGFTFNTYAMNWVRQAPGKGLEWVARIRSKSNNYATYYADSVKDRFTISRDDSQSMLYLQMNNLKTEDTAMYYCVRGLLRYRAFDVWGAGTTVTVSS VL: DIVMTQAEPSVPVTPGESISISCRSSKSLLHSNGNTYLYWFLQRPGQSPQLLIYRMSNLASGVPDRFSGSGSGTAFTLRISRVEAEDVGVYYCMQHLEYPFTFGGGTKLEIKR when you can.
Reply: 4

Ask: Dear colleague, please send me the reported Flow (fold over parent) for 7B16.008 (CDR H3 alanine scan variant of 7-B16) (antibody, human IgG1, kappa, V domains shown) VH: EVQLVESGGGLVQPKGSLKLSCAASGFTFNTYAMNWVRQAPGKGLEWVARIRSKSNNYATYYADSVKDRFTISRDDSQSMLYLQMNNLKTEDTAMYYCVRGLLRARFFDVWGAGTTVTVSS VL: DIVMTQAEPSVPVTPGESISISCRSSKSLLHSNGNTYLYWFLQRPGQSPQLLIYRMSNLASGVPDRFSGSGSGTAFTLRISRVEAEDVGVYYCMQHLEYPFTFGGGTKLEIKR when you can.
Reply: 9

Ask: Dear colleague, please send me the reported Flow (fold over parent) for 7B16.009 (CDR H3 alanine scan variant of 7-B16) (antibody, human IgG1, kappa, V domains shown) VH: EVQLVESGGGLVQPKGSLKLSCAASGFTFNTYAMNWVRQAPGKGLEWVARIRSKSNNYATYYADSVKDRFTISRDDSQSMLYLQMNNLKTEDTAMYYCVRGLLRYAFFDVWGAGTTVTVSS VL: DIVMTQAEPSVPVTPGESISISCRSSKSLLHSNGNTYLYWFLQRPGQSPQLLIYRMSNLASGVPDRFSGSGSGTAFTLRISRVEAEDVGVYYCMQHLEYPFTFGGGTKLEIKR when you can.
Reply: 10
